# Target Of Assay: CDK9 (Homo sapiens, UniProt P50750)
# Construct: endogenous in cells; host or cells: MDA-MB-231
# Sequence (P50750 whole entry): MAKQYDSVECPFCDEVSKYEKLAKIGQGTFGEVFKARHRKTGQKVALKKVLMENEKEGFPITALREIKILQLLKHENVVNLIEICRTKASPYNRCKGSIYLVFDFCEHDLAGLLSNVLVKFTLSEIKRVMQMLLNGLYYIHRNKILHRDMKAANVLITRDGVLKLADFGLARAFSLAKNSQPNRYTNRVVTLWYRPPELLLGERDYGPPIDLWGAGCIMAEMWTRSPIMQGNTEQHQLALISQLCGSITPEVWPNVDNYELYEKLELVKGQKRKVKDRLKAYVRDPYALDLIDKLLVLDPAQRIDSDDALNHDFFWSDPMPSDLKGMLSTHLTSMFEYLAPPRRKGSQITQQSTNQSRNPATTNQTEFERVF
# Assay Protocol: CDK protein degradation activity (Western blotting), CDK9
# Assay type: cell-based
# Condition Label: MDA-MB-231 cells, 10 μM, 16 hours, Western blot
Property Measured: Enzyme degradation CDK9 (% remaining) @ 10 μM (%)
Respond numerically; units are % and should not be typed.

O=C1CC[C@H](N2C(=O)c3cccc(N4CCC(CN5CCC(c6ccc(Nc7ncnc8c7ncn8C7CC(NC(=O)Cc8ccccc8)C7)cc6)CC5)CC4)c3C2=O)C(=O)N1 (stereo partly drawn) = 0

Next:
O=C1CCC(N2C(=O)c3cccc(OCC(=O)N4CCN(CCCN5CCN(c6ccc(Nc7ncnc8c7ncn8[C@H]7C[C@@H](NC(=O)Cc8ccccc8)C7)cc6)CC5)CC4)c3C2=O)C(=O)N1 (stereo partly drawn) has a reported Enzyme degradation CDK9 (% remaining) @ 10 μM of 0

###

Listing of entries alongside the reported Enzyme degradation CDK9 (% remaining) @ 1 μM.
# Target Of Assay: CDK9 (Homo sapiens)
# Construct: endogenous in cells; host or cells: MDA-MB-231
# Assay Protocol: CDK protein degradation activity (Western blotting), CDK9
# Format: cell-based
# Condition Label: MDA-MB-231 cells, 1 μM, 16 hours, Western blot
# Method: In order to evaluate the CDK protein degradation activity of the compounds according to the present invention, the following experiment was conducted. MDA-MB-231 cells were seeded at 5×10^5 cells per well in a 6-well plate. The next day, the compounds were treated in each well to achieve final concentrations of 100 nM, 1 μM, and 10 μM. […] Cell lysates were quantified and separated by size using sodium dodecyl sulfate-polyacrylamide gel electrophoresis (SDS-PAGE). […]
The figure you give is taken to be in %; do not add the unit.

Observe how each entry below is paired with its result.
O=C1CC[C@H](N2C(=O)c3ccc(OCC(=O)N4CCN(CC5CCN(c6ccc(Nc7ncnc8c7ncn8C7CC(NC(=O)c8c(Cl)cccc8Cl)C7)cc6)CC5)CC4)cc3C2=O)C(=O)N1 (some centres unmarked) [Compound 325] = 0
O=C1CC[C@H](N2C(=O)c3cccc(N4CCC(CN5CCN(c6ccc(Nc7ncnc8c7ncn8C7CC(NC(=O)Cc8ccccc8)C7)cc6)CC5)CC4)c3C2=O)C(=O)N1 (some centres unmarked) [Compound 178] = 0
O=C1CC[C@H](N2C(=O)c3ccc(NCC(=O)N4CCC5(CC(N6CCN(c7ccc(Nc8ncnc9c8ncn9[C@H]8C[C@@H](NC(=O)Cc9ccccc9)C8)cc7)CC6)C5)C4)cc3C2=O)C(=O)N1 (some centres unmarked) [Compound 265] = 0
O=C1CC[C@H](N2C(=O)c3cccc(NCC(=O)N4CCC(CN5CCC(CNc6ncnc7c6ncn7[C@H]6C[C@@H](NC(=O)c7c(Cl)cccc7Cl)C6)CC5)CC4)c3C2=O)C(=O)N1 [Compound 170] = 0
O=C1CCN(c2coc3cc(C(=O)N4CCC(CN5CCN(c6ccc(Nc7ncnc8c7ncn8[C@H]7C[C@@H](NC(=O)Cc8ccccc8)C7)cc6)CC5)CC4)ccc23)C(=O)N1 [Compound 187] = 0
CC(=O)NC1CC(n2cnc3c(NCC4CCN(CC5CCN(c6cccc7c6C(=O)N([C@H]6CCC(=O)NC6=O)C7=O)CC5)CC4)ncnc32)C1 (some centres unmarked) [Compound 159] = 70
O=C1CC[C@H](N2C(=O)c3ccc(N4CC(C(=O)N5CCN(CC6CCN(c7ccc(Nc8ncnc9c8ncn9C8CC(NC(=O)Cc9ccccc9)C8)cc7)CC6)CC5)C4)cc3C2=O)C(=O)N1 (some centres unmarked) [Compound 331] = 10
Cc1cccc(C(=O)NC2CC(n3cnc4c(NCCC5CCN(CC6CCN(c7ccc8c(c7)C(=O)N([C@H]7CCC(=O)NC7=O)C8=O)CC6)CC5)ncnc43)C2)n1 (some centres unmarked) [Compound 308] = 0

Now let's try a different one.
For this compound ( Cc1cccc(C(=O)NC2CC(n3cnc4c(NC5CCN(CCOC6CCN(c7cccc8c7C(=O)N([C@H]7CCC(=O)NC7=O)C8=O)CC6)CC5)ncnc43)C2)n1 (some centres unmarked) [Compound 48] ), measured Enzyme degradation CDK9 (% remaining) @ 1 μM is 20

###

# Target Of Assay: CDK9 (Homo sapiens)
# Construct: endogenous in cells; host or cells: MDA-MB-231
# Assay Protocol: CDK protein degradation activity (Western blotting), CDK9
# Format: cell-based
# Condition Label: MDA-MB-231 cells, 1 μM, 16 hours, Western blot
Property Measured: Enzyme degradation CDK9 (% remaining) @ 1 μM

Solved entries (count: 2):
O=C1CC[C@H](N2C(=O)c3ccc(OCC(=O)N4CCC(CN5CCN(c6ccc(Nc7ncnc8c7ncn8[C@H]7C[C@@H](NC(=O)c8c(Cl)cccc8Cl)C7)cc6)CC5)CC4)cc3C2=O)C(=O)N1 = 0/0/0%
O=C1CCC(n2nnc3ccc(N4CCC(CCN5CCN(c6ccc(Nc7ncnc8c7ncn8[C@H]7C[C@@H](NC(=O)c8c(Cl)cccc8Cl)C7)cc6)CC5)CC4)cc3c2=O)C(=O)N1 (stereo partly drawn) = 0/0/0%

Okay, now this molecule:
// field: Enzyme degradation CDK9 (% remaining) @ 1 μM; key: O=C1CC[C@@H](c2ccc(OCC(=O)N3CCC4(CC(N5CCN(c6ccc(Nc7ncnc8c7ncn8C7CC(NC(=O)Cc8ccccc8)C7)cc6)CC5)C4)C3)cc2)C(=O)N1 (stereo partly drawn) ; value = 0%

###

# Target Of Assay: CDK2 (Homo sapiens)
# Construct: endogenous in cells; host or cells: MDA-MB-231
# Assay Protocol: CDK protein degradation activity (Western blotting), CDK2
# Format: cell-based
# Condition Label: MDA-MB-231 cells, 0.1 μM, 16 hours, Western blot
Property Measured: Enzyme degradation CDK2 (% remaining) @ 0.1 μM (%)
// units = %; emit number, no label

O=C1CC[C@@H](c2cccc(OCC(=O)N3CCN(CCCN4CCN(c5ccc(Nc6ncnc7c6ncn7C6CC(NC(=O)Cc7ccccc7)C6)cc5)CC4)CC3)c2)C(=O)N1 (stereo partly shown) = 10

# context switch: different molecule, same Enzyme degradation CDK2 (% remaining) @ 0.1 μM
The molecule O=C1CCC(N2C(=O)C=C(N3CCC(C(=O)NC[C@H]4CC[C@H](CN5CCN(c6ccc(Nc7ncnc8c7ncn8[C@H]7C[C@@H](NC(=O)Cc8ccccc8)C7)cc6)CC5)CC4)CC3)C2=O)C(=O)N1 (stereo partly shown) showed Enzyme degradation CDK2 (% remaining) @ 0.1 μM equal to 50

###

# maps each entry to its Enzyme degradation CDK2 (% remaining) @ 1 μM
# Target Of Assay: CDK2 (Homo sapiens, UniProt P24941)
# Construct: endogenous in cells; host or cells: MDA-MB-231
# Assay Protocol: CDK protein degradation activity (Western blotting), CDK2
# Assay type: cell-based
# Condition Label: MDA-MB-231 cells, 1 μM, 16 hours, Western blot

Noted for O=C1CC[C@H](N2C(=O)c3cccc(NCC(=O)N4CCC(CN5CCN(c6ccc(Nc7ncnc8c7ncn8C7CC(NC(=O)c8cccc(F)n8)C7)cc6)CC5)CC4)c3C2=O)C(=O)N1 (stereo partly drawn) [Compound 430] : its Enzyme degradation CDK2 (% remaining) @ 1 μM reads 10/10/10%

The reported Enzyme degradation CDK2 (% remaining) @ 1 μM of the molecule O=C1CC[C@@H](c2ccc(OCC(=O)N3CCC4(CC3)CC(N3CCN(c5ccc(Nc6ncnc7c6ncn7[C@H]6C[C@@H](NC(=O)c7c(Cl)cccc7Cl)C6)cc5)CC3)C4)cc2)C(=O)N1 [Compound 442] was 40/40/40%

Please fill in: Enzyme degradation CDK2 (% remaining) @ 1 μM reported for O=C1CCN(c2coc3cc(C(=O)N4CCC(CN5CCN(c6ccc(Nc7ncnc8c7ncn8[C@H]7C[C@@H](NC(=O)Cc8ccccc8)C7)cc6)CC5)CC4)ccc23)C(=O)N1 [Compound 187] = 10%

###

# Target Of Assay: CDK9 (Homo sapiens, UniProt P50750)
# Construct: endogenous in cells; host or cells: MDA-MB-231
# Assay Protocol: CDK protein degradation activity (Western blotting), CDK9
# Type: cell-based
# Condition Label: MDA-MB-231 cells, 10 μM, 16 hours, Western blot
Property Measured: Enzyme degradation CDK9 (% remaining) @ 10 μM

See these solved cases before continuing.
Cc1cccc(C(=O)NC2CC(n3cnc4c(Nc5ccc(N6CCN(C7CC8(CCN(C(=O)COc9ccc([C@@H]%10CCC(=O)NC%10=O)cc9)CC8)C7)CC6)cc5)ncnc43)C2)n1 (stereo partly drawn) = 10/10/10%
O=C1CC[C@H](N2C(=O)c3ccc(N4CCC(CN5CCC(c6ccc(Nc7ncnc8c7ncn8[C@H]7C[C@@H](NC(=O)Cc8ccccc8)C7)cc6)CC5)CC4)cc3C2=O)C(=O)N1 = 0%

# input for lookup
For reference, reported Enzyme degradation CDK9 (% remaining) @ 10 μM for O=C1CC[C@H](N2C(=O)C=C(N3CCC(C(=O)N4CCC(CC(=O)N5CCN(c6ccc(Nc7ncnc8c7ncn8[C@H]7C[C@@H](NC(=O)Cc8ccccc8)C7)cc6)CC5)CC4)CC3)C2=O)C(=O)N1 stands at 0%
